src = patent US20240228506A1

measured on: GST-RIPK1 (recombinant GST-RIPK1 kinase domain (residues 1-327)) (Homo sapiens, UniProt Q13546)
Construct: recombinant GST-RIPK1 kinase domain (residues 1-327) enzyme
Sequence (Q13546 1-327): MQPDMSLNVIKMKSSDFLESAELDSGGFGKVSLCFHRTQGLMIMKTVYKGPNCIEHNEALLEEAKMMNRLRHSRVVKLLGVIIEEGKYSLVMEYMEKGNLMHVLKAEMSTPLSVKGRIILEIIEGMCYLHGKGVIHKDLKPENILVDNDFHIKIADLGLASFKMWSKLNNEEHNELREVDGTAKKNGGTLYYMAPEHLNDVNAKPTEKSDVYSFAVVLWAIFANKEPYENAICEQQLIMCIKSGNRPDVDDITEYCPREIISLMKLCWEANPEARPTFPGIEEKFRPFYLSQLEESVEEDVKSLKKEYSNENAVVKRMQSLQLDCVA
assay comment: RIPK1-ADP-Glo enzymatic assay
recorded conditions: 25 nM GST-RIPK1, 300 μM ATP, 3 μM dephosphorylated-MBP; 30 minutes pre-incubation, 150 minutes reaction; ten-point titration
quantity: log10 of IC50 (log10 of the value in µM)
In our notation, the value equals log10 of IC50 in µM.

Query: log10 of IC50; subject: CC(C)(C(=O)N1C[C@@H]2C[C@H]1c1cncc(C#Cc3cnc4ccnn4c3)c1O2)C(F)F
-1.57

Requested read-out: log10 of IC50. Entry: CC(C)(CC#N)C(=O)N1C[C@@H]2C[C@H]1c1cncc(C#N)c1O2
-1.05

Given the molecule CC(C)(C(=O)N1C[C@@H]2C[C@H]1c1cncc(C#Cc3ccc(C(F)F)nc3)c1O2)C(F)F , what is its reported log10 of IC50?
-1.59

Give its log10 of IC50 value. Item: Cc1ccc(C#Cc2cncc3c2O[C@H]2C[C@@H]3N(C(=O)C34CCC(F)(CC3)C4)C2)cc1
-1.68

Which log10 of IC50 value belongs to N#CCc1ccc(C#Cc2cncc3c2O[C@H]2C[C@@H]3N(C(=O)C34CCC(F)(CC3)C4)C2)cc1 ?
-1.74

Bench note: what log10 of IC50 did N#CC12CCC(C(=O)N3C[C@@H]4C[C@H]3c3cncc(Cl)c3O4)(C1)C2 show?
-1.06

Item N#Cc1cncc2c1O[C@H]1C[C@@H]2N(C(=O)C2(F)CCN(c3cc(C4CC4)ncn3)CC2)C1 has what recorded log10 of IC50?
-0.63

If you can, please state the reported log10 of IC50 value of CC1OCCC1(C)C(=O)N1C[C@@H]2C[C@H]1c1cncc(C#N)c1O2 (stereo partly drawn) .
-0.23

Could you tell me which log10 of IC50 is on file for CC(C)(CC#N)C(=O)N1C[C@@H]2C[C@H]1c1cncc(C#N)c1S2 ?
-1.38

Reported log10 of IC50 for O=C(N1C[C@@H]2C[C@H]1c1cncc(C#Cc3cncc(F)c3)c1O2)C12CCC(C(F)(F)F)(CC1)C2 : what is it?
-1.32

Entry under review: CC(C)(C(=O)N1C[C@@H]2C[C@H]1c1cncc(C#Cc3cnc(C#N)nc3)c1O2)C(F)F . Reported log10 of IC50?
-1.72

Could you tell me which log10 of IC50 is on file for O=C(N1C[C@@H]2C[C@H]1c1cncc(C#Cc3cccnn3)c1O2)C12CCC(C(F)(F)F)(CC1)C2 ?
-1.77

Consider the molecule CC(C)(C(=O)N1C[C@@H]2C[C@H]1c1cncc(C#Cc3ncco3)c1O2)C(F)F and give its measured log10 of IC50.
-1.17

I would be grateful if you could share the reported log10 of IC50 for CC(C)(C(=O)N1C[C@@H]2C[C@H]1c1cncc(C#Cc3cccc(F)c3)c1O2)C(F)F .
-1.38

Which log10 of IC50 reading was recorded for the molecule CC(F)(F)C(C)(C)C(=O)N1C[C@@H]2C[C@H]1c1cncc(C#N)c1O2 ?
-1.68

Request the reported log10 of IC50 associated with CC(C)(C(=O)N1C[C@@H]2C[C@H]1c1cncc(C#Cc3ccc(OC(F)F)nc3)c1O2)C(F)F
-1.46

GET /values?readout=log10 of IC50&item= CC(F)(F)C(C)(C)C(=O)N1C[C@@H]2C[C@H]1c1cncc(Cl)c1O2
-1.74

Using the record for N#Cc1cncc2c1O[C@H]1C[C@@H]2N(C(=O)C23CCCC2C3(F)F)C1 (single isomer, unassigned) [Compound 1-87] , report its log10 of IC50.
-1.17

What measured log10 of IC50 goes with C#Cc1cncc2c1O[C@H]1C[C@@H]2N(C(=O)C(C)(C)C)C1 ?
-1.30

What does the data say about its log10 of IC50? Entry: CC(C)(C(=O)N1C[C@@H]2C[C@H]1c1cncc(C#Cc3cnc4cncn4c3)c1O2)C(F)F
-1.24

What does the record list as log10 of IC50 for N#Cc1cncc2c1OC[C@H]1CC[C@@H]2N1C(=O)C12CCC(C(F)(F)F)(CC1)C2 ?
-0.94

Any idea what its log10 of IC50 is? The molecule is N#Cc1cncc2c1O[C@H]1C[C@@H]2N(C(=O)C23CCC(C2)OC3)C1 (single isomer, unassigned) [Compound 1-51]
-0.44

For the molecule N#Cc1cncc2c1O[C@H]1C[C@@H]2N(C(=O)C2(C(F)F)CCCO2)C1 (stereo partly drawn) , what log10 of IC50 is on record?
-0.64

Returns the measured log10 of IC50 for the input molecule. Input: O=C(N1C[C@@H]2C[C@H]1c1cncc(Cl)c1O2)C1(C(F)F)CCC1
-0.91

Suppose we examine the molecule CC(C)(C(=O)N1C[C@@H]2C[C@H]1c1cncc(F)c1O2)C(F)F ; what log10 of IC50 value has been reported?
-0.74

Consider the molecule shown here: CCC(C)(OC)C(=O)N1C[C@@H]2C[C@H]1c1cncc(C#N)c1O2 (single isomer, unassigned) [Compound 1-16] What is its recorded log10 of IC50?
-2.00

// query log10 of IC50 value for entry COc1cccc(C#Cc2cncc3c2O[C@H]2C[C@@H]3N(C(=O)C34CCC(C(F)(F)F)(CC3)C4)C2)c1
-1.74

Would you kindly share the measured log10 of IC50 for N#Cc1cncc2c1O[C@H]1C[C@@H]2N(C(=O)C23CC(Cl)(C2)C3)C1 ?
-1.06

What value of measured log10 of IC50 is listed for O=C(N1C[C@@H]2C[C@H]1c1cncc(F)c1O2)C12CCC(F)(CC1)CC2 ?
-1.09

Reported log10 of IC50, molecule CC(C)(C(=O)N1C[C@@H]2C[C@H]1c1cncc(Cl)c1O2)C1CC1 : ____
-1.62
